Tested on: Schistosoma mansoni
measurement-protocol: Inhibition of recombinant Schistosoma mansoni SmCB1 expressed in Pichia pastoris at 5 uM using Z-FR-AMC as substrate preincubated for 10 mins followed by substrate addition and measured at 23 sec interval for 30 mins by fluorimetric analysis relative to control
assay-metric: inhibition (%)
Kindly answer with a numeric value in %, unit omitted.

molecule Cc1ccc(CSCc2ccc(C(=O)NC3CC3)o2)cc1 , inhibition observed: 50

molecule COc1ccc(-c2cc3c(nn2)-c2ccccc2C3=O)cc1 , inhibition observed: 38.5

molecule COc1ccc(Br)cc1C1Nc2ccc3ccccc3c2C2=C1C(=O)CC(c1ccccc1)C2 (stereo not given) , inhibition observed: 50

molecule CC1(c2ccccc2)Nc2ccccc2-c2nc3ccccc3n21 (stereo not given) , inhibition observed: 5.2

molecule Cc1ccc(CN2CCC(C(=O)Nc3ccc(-c4cc5ccccc5[nH]4)cc3)CC2)o1 , inhibition observed: 73

molecule Cc1cc(NC(=O)C2c3ccccc3C(=O)N(CC(C)C)C2c2cccs2)no1 (stereo not given) , inhibition observed: 0

molecule O=C1C2=C(Nc3ccccc3SC2c2ccccc2)c2ccccc21 (stereo not given) , inhibition observed: 0.3

molecule Cc1cc(NC(=O)c2cccc(C(F)(F)F)c2)n(-c2nc(-c3ccc4c(c3)OCO4)cs2)n1 , inhibition observed: 47.3

molecule CCOc1cc(Cl)c(C(C)NC(=O)c2cccc(OC)c2)cc1OCC (stereo not given) , inhibition observed: 9.5

molecule CC(C)(C)c1ccc(O)c(CNC2CCCCC2)c1 , inhibition observed: 48
